Documented BAF3-KDR (MIN IL3) pIC50 across a set of compounds
molecular target: Ba/F3-KDR-transfected cells (Homo sapiens, UniProt P35968); construct: BAF3-KDR (MIN IL3) pIC50; other: minus IL3; experiment: Ba/F3-KDR (minus IL3) cellular proliferation assay, Alamar Blue; type: cell-based
Sequence (P35968 whole entry, change not shown): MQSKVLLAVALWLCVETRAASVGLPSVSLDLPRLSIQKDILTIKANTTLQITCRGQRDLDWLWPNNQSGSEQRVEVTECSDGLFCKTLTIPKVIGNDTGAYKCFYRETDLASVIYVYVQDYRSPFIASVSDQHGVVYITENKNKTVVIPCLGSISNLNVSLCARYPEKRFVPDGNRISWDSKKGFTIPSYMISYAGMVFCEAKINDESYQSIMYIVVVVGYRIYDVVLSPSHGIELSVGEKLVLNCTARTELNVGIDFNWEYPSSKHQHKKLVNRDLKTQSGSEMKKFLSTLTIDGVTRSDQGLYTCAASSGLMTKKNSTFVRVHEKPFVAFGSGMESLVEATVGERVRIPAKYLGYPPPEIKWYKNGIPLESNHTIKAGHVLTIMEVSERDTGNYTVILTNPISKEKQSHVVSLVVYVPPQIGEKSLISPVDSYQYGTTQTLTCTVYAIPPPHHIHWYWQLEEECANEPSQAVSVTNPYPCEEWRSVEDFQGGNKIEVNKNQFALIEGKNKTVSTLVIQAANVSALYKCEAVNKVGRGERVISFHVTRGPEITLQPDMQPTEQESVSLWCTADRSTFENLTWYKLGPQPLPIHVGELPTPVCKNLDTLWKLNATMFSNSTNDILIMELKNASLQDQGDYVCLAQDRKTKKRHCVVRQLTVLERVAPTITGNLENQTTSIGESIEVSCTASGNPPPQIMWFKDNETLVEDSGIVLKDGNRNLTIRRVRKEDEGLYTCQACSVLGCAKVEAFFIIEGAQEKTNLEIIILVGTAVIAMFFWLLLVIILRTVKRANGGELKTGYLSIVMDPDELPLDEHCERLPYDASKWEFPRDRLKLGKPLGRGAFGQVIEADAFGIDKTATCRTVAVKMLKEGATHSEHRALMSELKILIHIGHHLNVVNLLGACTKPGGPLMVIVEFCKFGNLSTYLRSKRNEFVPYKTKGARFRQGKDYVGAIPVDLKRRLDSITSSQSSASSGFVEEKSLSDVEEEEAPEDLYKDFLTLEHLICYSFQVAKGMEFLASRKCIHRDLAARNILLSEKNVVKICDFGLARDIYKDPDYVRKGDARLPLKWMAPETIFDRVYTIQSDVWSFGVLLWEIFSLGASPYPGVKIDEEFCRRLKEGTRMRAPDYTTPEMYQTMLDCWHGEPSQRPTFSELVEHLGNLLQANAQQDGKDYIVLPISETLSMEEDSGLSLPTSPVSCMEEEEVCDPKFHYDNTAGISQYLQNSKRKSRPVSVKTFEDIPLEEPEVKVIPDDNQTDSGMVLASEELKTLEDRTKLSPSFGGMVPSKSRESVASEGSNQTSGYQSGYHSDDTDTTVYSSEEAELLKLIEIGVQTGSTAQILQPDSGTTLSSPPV
Where a name gives a salt, the structure may show the parent alone.
endpoint.label: BAF3-KDR (MIN IL3) pIC50

INSERT INTO assay_data (compound, tested_system, qual, value) VALUES
  ('COc1cc(OC)c(F)c(N(CC#N)c2ccc3ncc(-c4cnn(C)c4)nc3n2)c1F [Compound 173]', 'Ba/F3-KDR-transfected cells (Homo sapiens, UniProt P35968)', '=', 5.78),
  ('COc1cc(OC)c(F)c(N(CCNC2COC2)c2ccc3ncc(-c4cnn(C)c4)nc3n2)c1F (single isomer, unassigned) [Compound 162]', 'Ba/F3-KDR-transfected cells (Homo sapiens, UniProt P35968)', '=', 6.61),
  ('COc1cc(OC)c(Cl)c(N(C[C@H]2CCC(=O)N2)c2ccc3ncc(-c4cnn(C)c4)nc3n2)c1Cl [Compound 97]', 'Ba/F3-KDR-transfected cells (Homo sapiens, UniProt P35968)', '=', 5.35),
  ('COc1cc(OC)cc(N(Cc2nn[nH]n2)c2ccc3ncc(-c4cnn(C)c4)nc3n2)c1 [Compound 197]', 'Ba/F3-KDR-transfected cells (Homo sapiens, UniProt P35968)', '<', 5),
  ('COc1ccc(Cl)c(N(Cc2ncc[nH]2)c2ccc3ncc(-c4cnn(C)c4)nc3n2)c1Cl [Compound 65]', 'Ba/F3-KDR-transfected cells (Homo sapiens, UniProt P35968)', '=', 5.06),
  ('COc1cc(OC)cc(N(Cc2ncc[nH]2)c2ccc3ncc(-c4cnn(C)c4)nc3n2)c1 [24-hydrochloric acid salt]', 'Ba/F3-KDR-transfected cells (Homo sapiens, UniProt P35968)', '=', 5.92),
  ('COc1cc(OC)cc(N(Cc2ncc[nH]2)c2ccc3ncc(-c4cn[nH]c4)nc3n2)c1 [Compound 141]', 'Ba/F3-KDR-transfected cells (Homo sapiens, UniProt P35968)', '=', 5.87);

This collection of values is drawn from patent US9309242B2.
